Target: endothelin receptor (membrane of smooth muscle tissue of porcine aorta) (Sus scrofa)
Construct: from tissue; host or cells: porcine aorta smooth muscle, membrane fraction
Test: Endothelin binding inhibition test (125I-endothelin-1, porcine aorta smooth muscle membrane)
Conditions: 1.1 μM test compound (no mark); read-out: 125I-endothelin-1 binding inhibition
Numbered stars: 1 amine (or outer) side, 2 acyl side, 3 side chain; on linkers, the order of the positions; unused ones are H or OH. Square brackets hold non-standard residues; d marks the D form. Peptide text beside a SMILES is read from it. * marks the point of attachment. ξ: configuration not given here. dPhg = N[C@@H](C(=O)O)c1ccccc1; ξ2Thi = NC(Cc1cccs1)C(=O)O; 3Abz = Nc1cccc(C(=O)O)c1; Boc = CC(C)(C)OC(=O)*; CO = O=C([*:1])[*:2]; NHPh = c1ccc(N*)cc1; GABA = NCCCC(=O)O; βAla = NCCC(=O)O
# inhibition at 1.1 µM listing for each entry below
Numeric only. Scale: %

| compound | experimental value |
| --- | --- |
| CC(C)C[C@H](NC(=O)OC(C)(C)C)C(=O)N[C@H](Cc1c[nH]c2ccccc12)C(=O)NC(Cc1cccs1)C(=O)O (stereo partly drawn) [Compound 15] (Boc-Leu-[dW]-[ξ2Thi]-OH) | 71 |
| CC(C)C[C@H](NC(=O)N1CCCCCC1)C(=O)N[C@H](Cc1c[nH]c2ccccc12)C(=O)N[C@H](C)CS(=O)(=O)O | 86 |
| CC(C)C[C@H](NC(=O)Nc1ccccc1)C(=O)N[C@H](Cc1c[nH]c2ccccc12)C(=O)NCCC(=O)O [Compound 84] ({NHPh-CO}-Leu-[dW]-[βAla]-OH) | 70 |

Enquiry: Fill blank: measured inhibition at 1.1 µM of the compound CC(C)C[C@H](NC(=O)OC(C)(C)C)C(=O)N[C@H](Cc1c[nH]c2ccccc12)C(=O)NCCCC(=O)O [Compound 5] (Boc-Leu-[dW]-[GABA]-OH) is ____.
Return: 33

Enquiry: Proceed to CC(C)C[C@H](NC(=O)N1CCCCCC1)C(=O)N[C@H](Cc1cn(C=O)c2ccccc12)C(=O)N[C@H](Cc1c[nH]cn1)C(=O)O
Return: 86

Enquiry: Proceed to CC(C)C[C@H](NC(=O)NC12CC3CC(CC(C3)C1)C2)C(=O)N[C@H](Cc1c[nH]c2ccccc12)C(=O)NCCC(=O)O
Return: 69

Enquiry: Proceed to CC(C)C[C@H](NC(=O)OC(C)C)C(=O)N[C@H](Cc1c[nH]c2ccccc12)C(=O)NCCC(=O)O
Return: 29

Enquiry: Proceed to CC(C)C[C@H](NC(=O)N1CCCCCC1)C(=O)N[C@H](Cc1c[nH]c2ccccc12)C(=O)NCCC(=O)N(C)C
Return: 32

Enquiry: Proceed to CC(C)C[C@H](NC(=O)OC(C)(C)C)C(=O)N[C@H](Cc1c[nH]c2ccccc12)C(=O)N[C@@H](C(=O)O)c1ccccc1 [Compound 40] (Boc-Leu-[dW]-[dPhg]-OH)
Return: 36

Enquiry: Proceed to CC(C)C[C@H](NC(=O)OC(C)(C)C)C(=O)N[C@H](Cc1c[nH]c2ccccc12)C(=O)Nc1cccc(C(=O)O)c1 [Compound 12] (Boc-Leu-[dW]-[3Abz]-OH)
Return: 31

Enquiry: Proceed to CC(C)C[C@H](NC(=O)OC(C)(C)C)C(=O)N[C@H](Cc1c[nH]c2ccccc12)C(=O)N[C@H](Cc1ccccc1)C(=O)O [Compound 39] (Boc-Leu-[dW]-[dF]-OH)
Return: 75

Enquiry: Proceed to CC(C)C[C@H](NC(=O)N1CCCCCC1)C(=O)N[C@H](Cc1c[nH]c2ccccc12)C(=O)NCCC(N)=O
Return: 39

---

Molecular target: endothelin receptor (membrane of smooth muscle tissue of porcine aorta) (Sus scrofa, UniProt Q29010)
Construct: from tissue; host or cells: porcine aorta smooth muscle, membrane fraction
Sequence (Q29010 21-427): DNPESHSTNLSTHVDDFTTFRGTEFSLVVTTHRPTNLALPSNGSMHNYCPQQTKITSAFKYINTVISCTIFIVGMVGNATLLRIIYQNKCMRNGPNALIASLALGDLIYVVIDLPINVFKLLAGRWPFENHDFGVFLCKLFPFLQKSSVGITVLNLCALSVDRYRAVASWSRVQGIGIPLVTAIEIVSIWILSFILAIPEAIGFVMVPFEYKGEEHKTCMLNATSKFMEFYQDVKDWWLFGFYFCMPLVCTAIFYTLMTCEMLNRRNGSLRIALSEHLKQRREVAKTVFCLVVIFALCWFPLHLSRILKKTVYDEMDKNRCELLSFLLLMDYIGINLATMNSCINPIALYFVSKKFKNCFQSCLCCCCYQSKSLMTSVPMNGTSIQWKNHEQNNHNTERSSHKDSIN
Experiment: Endothelin binding inhibition test (125I-endothelin-1, porcine aorta smooth muscle membrane)
Conditions: 1.1 μM test compound (no mark); read-out: 125I-endothelin-1 binding inhibition
Square brackets hold non-standard residues; d marks the D form. Peptide text beside a SMILES is read from it. * marks the point of attachment. Boc = CC(C)(C)OC(=O)*; Aib = CC(C)(N)C(=O)O
# inhibition at 1.1 µM listing for each entry below
# output: numeric value plus its unit

Use the examples below as a reference point.
| molecule | experimental value |
| --- | --- |
| CC(C)C[C@H](NC(=O)OC(C)(C)C)C(=O)N[C@H](Cc1c[nH]c2ccccc12)C(=O)NCC(=O)O [Compound 31] (Boc-Leu-[dW]-Gly-OH) | 45% |
| CC(C)C[C@H](NC(=O)OC(C)(C)C)C(=O)N[C@H](Cc1c[nH]c2ccccc12)C(=O)NC(C)(C)C(=O)O [Compound 13] (Boc-Leu-[dW]-[Aib]-OH) | 39% |

Switching to the query record.
Enquiry: Fill blank: measured inhibition at 1.1 µM of the molecule CC(C)C[C@H](NC(=O)OC(C)(C)C)C(=O)N[C@H](Cc1c[nH]c2ccccc12)C(=O)N[C@H](C)C(=O)O [Compound 41] (Boc-Leu-[dW]-[dA]-OH) is ____.
Return: 65%

---

Biological target: endothelin receptor (membrane of smooth muscle tissue of porcine aorta) (Sus scrofa)
Construct: from tissue; host or cells: porcine aorta smooth muscle, membrane fraction
Sequence (Q29010 21-427): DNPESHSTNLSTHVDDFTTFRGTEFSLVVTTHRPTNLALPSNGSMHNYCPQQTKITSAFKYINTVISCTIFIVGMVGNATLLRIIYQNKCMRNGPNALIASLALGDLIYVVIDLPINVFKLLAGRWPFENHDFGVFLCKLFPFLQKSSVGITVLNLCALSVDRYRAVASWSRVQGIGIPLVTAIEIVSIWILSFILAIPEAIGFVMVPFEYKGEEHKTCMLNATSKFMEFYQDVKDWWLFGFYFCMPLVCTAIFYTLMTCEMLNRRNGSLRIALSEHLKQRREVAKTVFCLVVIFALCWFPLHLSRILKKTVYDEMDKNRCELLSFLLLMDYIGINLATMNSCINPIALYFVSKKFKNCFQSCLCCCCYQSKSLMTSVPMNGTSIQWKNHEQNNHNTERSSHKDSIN
Experiment: Endothelin binding inhibition test (125I-endothelin-1, porcine aorta smooth muscle membrane)
Conditions: 1.1 μM test compound (no mark); read-out: 125I-endothelin-1 binding inhibition
Square brackets hold non-standard residues; d marks the D form. Peptide text beside a SMILES is read from it. * marks the point of attachment. Cbz = O=C(OCc1ccccc1)*; Boc = CC(C)(C)OC(=O)*; NHPh = c1ccc(N*)cc1; βAla = NCCC(=O)O
# inhibition at 1.1 µM listing for each entry below
Numeric only. Scale: %

Use the examples below as a reference point.
| compound | unit | inhibition at 1.1 µM |
| --- | --- | --- |
| CC[C@H](C)[C@H](NC(=O)OC(C)(C)C)C(=O)N[C@H](Cc1c[nH]c2ccccc12)C(=O)NCCC(=O)O [Compound 54] (Boc-Ile-[dW]-[βAla]-OH) | % | 39 |
| CC(C)C[C@H](NC(=O)N1CCCCCC1)C(=O)N[C@H](Cc1c[nH]c2ccccc12)C(=O)NCCS(=O)(=O)O | % | 86 |
| CC(C)C[C@H](NC(=O)OC(C)(C)C)C(=O)N[C@H](Cc1c[nH]c2ccccc12)C(=O)N[C@H](CC(=O)O)C(=O)Nc1ccccc1 [Compound 44] (Boc-Leu-[dW]-[dD]-NHPh) | % | 30 |
| CC(C)C[C@H](NC(=O)OC(C)(C)C)C(=O)N[C@H](Cc1c[nH]c2ccccc12)C(=O)N[C@H](Cc1c[nH]cn1)C(=O)O [Compound 4] (Boc-Leu-[dW]-[dH]-OH) | % | 80 |
| CC(C)C[C@H](NC(=O)N(CC(C)C)C1CCCC1)C(=O)N[C@H](Cc1c[nH]c2ccccc12)C(=O)N[C@H](Cc1c[nH]c2ccccc12)C(=O)O | % | 87 |

Enquiry: Fill blank: measured inhibition at 1.1 µM of the compound CC(C)C[C@H](NC(=O)N1CCCCCC1)C(=O)N[C@H](Cc1c[nH]c2ccccc12)C(=O)N[C@H](Cc1c[nH]cn1)C(=O)O is ____.
Return: 82

Enquiry: Proceed to CC(C)C[C@H](NC(=O)N1CCCCCC1)C(=O)N[C@H](Cc1c[nH]c2ccccc12)C(=O)NCCC(=O)O
Return: 78

Enquiry: Proceed to COC(=O)C(C(=O)N[C@@H](CC(C)C)C(=O)N[C@H](Cc1c[nH]c2ccccc12)C(=O)NCCC(=O)O)=C1SC=CS1
Return: 77

Enquiry: Proceed to CC(C)C[C@H](NC(=O)OC(C)(C)C)C(=O)N[C@H](Cc1c[nH]c2ccccc12)C(=O)N[C@H](CC(C)C)C(=O)O [Compound 3] (Boc-Leu-[dW]-[dL]-OH)
Return: 31

Enquiry: Proceed to CC(C)C[C@H](NC(=O)N(C(C)C)C(C)C)C(=O)N[C@H](Cc1c[nH]c2ccccc12)C(=O)NCCC(=O)O
Return: 81

Enquiry: Proceed to CC(C)C[C@H](NC(=O)OC(C)(C)C)C(=O)N[C@H](Cc1c[nH]c2ccccc12)C(=O)N[C@H](CCCCNC(=O)OCc1ccccc1)C(=O)O [Compound 8] (Boc-Leu-[dW]-[dK](Cbz)-OH)
Return: 56
